B1: FADS1 (parent)
chain: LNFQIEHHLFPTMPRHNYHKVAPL

variants of: B1; assay: protein stability index of a GFP-peptide fusion (GPS, HEK-293T) (PSI 1-6); higher = more stable; conditions: c terminus: a fixed tail appended;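 also: lentivirally expressed fusions sorted by FACS into six bins by GFP to DsRed ratio, PSI derived from sequencing read proportions per bin multiplied by bin number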
property_label: protein stability index

Check out these entries, answers already filled in.
CNFQIEHHLFPTMPRHNYHKVAPL [L1C]
2.11
LNFQIEHHLNPTMPRHNYHKVAPL [F10N]
2.28
LNFQIEHHLFPTMPRHNYHKVAPR [L24R]
1.51
LNFQIEHHLFPTMPRHAYHKVAPL [N17A]
1.98

In plain terms, LNFQIEHHLFSTMPRHNYHKVAPL [P11S] has a documented protein stability index of 2

In plain terms, LNFQIEHHLFETMPRHNYHKVAPL [P11E] has a documented protein stability index of 2.56

In plain terms, LNFQIEHHLFPTMPRHNYHKVAAL [P23A] has a documented protein stability index of 2.81

In plain terms, LNFQIEHHLFITMPRHNYHKVAPL [P11I] has a documented protein stability index of 2.19

In plain terms, LNFQEEHHLFPTMPRHNYHKVAPL [I5E] has a documented protein stability index of 2.1

In plain terms, LNFQIEHHLFPTMPRHNYHAVAPL [K20A] has a documented protein stability index of 1.9

In plain terms, LNFSIEHHLFPTMPRHNYHKVAPL [Q4S] has a documented protein stability index of 1.3

In plain terms, LNFNIEHHLFPTMPRHNYHKVAPL [Q4N] has a documented protein stability index of 2.22

In plain terms, LNFQPEHHLFPTMPRHNYHKVAPL [I5P] has a documented protein stability index of 2.14

In plain terms, FNFQIEHHLFPTMPRHNYHKVAPL [L1F] has a documented protein stability index of 3.4

In plain terms, LNFQIEHHLFPTMPRHNTHKVAPL [Y18T] has a documented protein stability index of 2.27
